From: the supplement of paper PMC10065799

Kindly supply the reported phosphorylation enrichment values for the records listed here.
tested on: c-Src; assay: phosphorylation enrichment, bacterial display (enrichment ratio); higher = better substrate or ligand; peptides without Tyr show the background;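 further: 11-residue human phosphosite peptides and single-mutation variants displayed on the E. coli surface, counted by deep sequencing, each peptide's frequency after selection divided by its frequency in the unselected input library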;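 further: frequency after pTyr selection over input frequency; kinase dosed for 20-30% of maximal phosphorylation in three min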
Respond with the number and no other words.

Item LVPPRYARSEI [PKP2_Y194] : provide phosphorylation enrichment
0.394

Item AAQNCYKVTNG [TPI1_Y105] : provide phosphorylation enrichment
0.356

Item RRAVKYLQMVG [AVPR2_Y117_C112R] : provide phosphorylation enrichment
0.737

Item ESLSSYRESAK [APOC2_Y47_W48R] : provide phosphorylation enrichment
0.303

###

target: EPHB2 (UniProt P29323); assay: phosphorylation enrichment, bacterial display (enrichment ratio); higher = better substrate or ligand; peptides without Tyr show the background
Sequence (P29323 whole entry, looked up): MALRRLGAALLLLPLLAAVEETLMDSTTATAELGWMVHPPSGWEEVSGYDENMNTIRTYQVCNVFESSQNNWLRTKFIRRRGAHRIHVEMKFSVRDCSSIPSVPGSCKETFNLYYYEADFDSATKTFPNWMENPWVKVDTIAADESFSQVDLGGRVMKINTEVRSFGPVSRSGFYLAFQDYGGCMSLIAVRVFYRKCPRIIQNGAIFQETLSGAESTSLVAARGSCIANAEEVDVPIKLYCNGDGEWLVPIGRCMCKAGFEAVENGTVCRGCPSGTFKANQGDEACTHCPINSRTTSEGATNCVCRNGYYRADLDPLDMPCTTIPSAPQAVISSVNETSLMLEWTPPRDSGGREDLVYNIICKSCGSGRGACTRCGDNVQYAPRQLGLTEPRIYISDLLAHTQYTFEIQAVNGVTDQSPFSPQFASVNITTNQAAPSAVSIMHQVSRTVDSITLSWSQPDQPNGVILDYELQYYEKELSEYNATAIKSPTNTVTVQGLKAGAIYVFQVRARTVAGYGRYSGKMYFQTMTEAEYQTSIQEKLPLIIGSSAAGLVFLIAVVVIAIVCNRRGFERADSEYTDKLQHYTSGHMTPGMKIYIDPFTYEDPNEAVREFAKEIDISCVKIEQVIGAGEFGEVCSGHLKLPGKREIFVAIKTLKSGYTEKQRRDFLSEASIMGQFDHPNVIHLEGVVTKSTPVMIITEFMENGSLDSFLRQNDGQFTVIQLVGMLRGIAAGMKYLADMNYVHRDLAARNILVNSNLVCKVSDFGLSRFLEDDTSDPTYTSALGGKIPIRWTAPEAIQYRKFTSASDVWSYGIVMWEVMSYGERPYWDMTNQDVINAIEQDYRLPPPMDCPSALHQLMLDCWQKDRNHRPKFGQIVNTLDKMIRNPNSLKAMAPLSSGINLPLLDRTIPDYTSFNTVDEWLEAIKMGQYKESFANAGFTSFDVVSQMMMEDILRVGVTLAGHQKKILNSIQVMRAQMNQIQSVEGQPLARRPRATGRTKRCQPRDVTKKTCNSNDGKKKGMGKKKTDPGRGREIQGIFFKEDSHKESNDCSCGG
Kindly supply the reported phosphorylation enrichment values for the records listed here.
Respond with the number and no other words.

Item EVGRVYLFLQP [ITGA2B_Y360] : provide phosphorylation enrichment
0.676

Item FRPPYYHRNCM [HGD_Y334] : provide phosphorylation enrichment
0.449

Item FGVTLYPNSRE [MEP1A_Y472] : provide phosphorylation enrichment
0.68

Item QAKRKYQEASK [FES_Y156] : provide phosphorylation enrichment
0.459

Item AALVQYYMEHH [PTPN11_Y80_E76A] : provide phosphorylation enrichment
1.17

Item TLLSAYQIPRT [GAB2_Y324_P320L] : provide phosphorylation enrichment
0.42

Item NVKGIYAVGDV [GSR_Y371] : provide phosphorylation enrichment
0.564

Item SCTFTCLLGDR [ETHE1_Y38_Y38C] : provide phosphorylation enrichment
0.536

Item RQGKDYIGAIP [KDR_Y951_V952I] : provide phosphorylation enrichment
0.62

Item RPSRWYQFPVA [ANOS1_Y259_R262P] : provide phosphorylation enrichment
0.433

Item LASSEYPVRRR [GALK1_Y236] : provide phosphorylation enrichment
0.472

Item MCDSHYLESRS [CLK1_Y56] : provide phosphorylation enrichment
0.535

Item PRSRSYSSTSI [REPS2_Y462] : provide phosphorylation enrichment
0.523

Item DESEDYRDTVV [CNNM3_Y456] : provide phosphorylation enrichment
0.931

Item REVPVYTDSEP [FAM120B_Y368] : provide phosphorylation enrichment
0.725

Item FSLIHYAGIVV [MYH7_Y582_D587V] : provide phosphorylation enrichment
0.59

Item STGSRYQPLAS [NCAPD2_Y1325] : provide phosphorylation enrichment
0.435

Item IGHGSYAKVLL [PRKCZ_Y263_R260H] : provide phosphorylation enrichment
0.656

Item RLFARYFQGDL [PDK3_Y337_YF] : provide phosphorylation enrichment
0.547

Item SWKRRYFLLRA [APBB1IP_Y331] : provide phosphorylation enrichment
0.58

Item KLNNEYLELNY [MME_Y497] : provide phosphorylation enrichment
1.01

Item FPHVIYARLWR [SMAD4_Y95] : provide phosphorylation enrichment
1.16

Item QLCVSYPGGFT [PROS1_Y259_N258S_YF] : provide phosphorylation enrichment
0.546

Item HELYVYKCDEN [DOCK3_Y548] : provide phosphorylation enrichment
0.862

Item LFSINYLHFGD [KDM4C_Y201_E206D_YF] : provide phosphorylation enrichment
0.538

Item EIPTQYEAMAS [GFAP_Y242_R239P] : provide phosphorylation enrichment
0.577

Item HTVEDYQAIVD [CCT7_Y263] : provide phosphorylation enrichment
0.936

Item GLAELYEFQKK [CKAP5_Y1854_K1857Q_YF] : provide phosphorylation enrichment
0.564

Item TLDTDYQMTKR [ADA_Y308] : provide phosphorylation enrichment
0.504

Item SIKHKYVTALF [KCNH2_Y611_D609H_YF] : provide phosphorylation enrichment
0.474

Item EADRKYEEVAR [TPM3_Y163] : provide phosphorylation enrichment
0.742

Item VDGSLYKTHPQ [HK1_Y417] : provide phosphorylation enrichment
0.389

Item AIMSFYATLID [RYR1_Y2426_A2428T] : provide phosphorylation enrichment
0.836

Item SGADSYEMEED [EGFR_Y316_C311S] : provide phosphorylation enrichment
0.585

Item IITVHYVLEES [RYR2_Y4559_A4556T] : provide phosphorylation enrichment
0.577

Item QEIATYRRLRE [KRT17_Y384_L388R] : provide phosphorylation enrichment
0.557

Item IINENYDYLKV [NUP98_Y1664_G1669V] : provide phosphorylation enrichment
1.31

Item CTTIHYIYMCN [TP53_Y234_N235I] : provide phosphorylation enrichment
0.461

Item GASWRYGSGVS [NEU1_Y242] : provide phosphorylation enrichment
0.432

Item ADDSYYTVRSA [ZAP70_Y493_A495V] : provide phosphorylation enrichment
0.637

Item IVVVPYEPPEV [TP53_Y220_S215I] : provide phosphorylation enrichment
0.544

Item GRDQPYSGAGD [TYRO3_Y828] : provide phosphorylation enrichment
0.457

Item CDDGKYVYVVT [RPS6KA3_Y488_Y483C] : provide phosphorylation enrichment
0.777

Item SFNNKYGMVAQ [APOB_Y276_K273N_YF] : provide phosphorylation enrichment
0.504

Item SEEVNYATLTF [CLEC12B_Y7_T6N] : provide phosphorylation enrichment
1.46

Item ADELEYSRTGL [MMUT_Y287_G284E] : provide phosphorylation enrichment
0.568

Item CTTIHYYYMCN [TP53_Y234_N235Y] : provide phosphorylation enrichment
0.773

Item PFFASYPPSPD [GDAP2_Y491_T489A_YF] : provide phosphorylation enrichment
0.865
